Test system: NIH3T3
experiment: qHTS assay to identify novel small-molecules to repurpose for Merkel cell carcinoma treatment (AID 1296009); note: nearly all actives have a fitted effect of over 60% in size
recorded.conditions: MCC and control cell lines, CellTiter-Glo viability, 72 h; at 44.8 µM (top of the series) unless noted
Text: MCC is a rare and aggressive neuroendocrine skin cancer with limited treatment options. Approximately 80% of MCCs have the Merkel cell polyomavirus (MCPyV) DNA integrated into the host genome (virus-positive: VP-MCC) and viral oncogenes drive oncogenesis. The remaining MCCs are virus-negative (VN-MCC) and are caused by UV mutagenesis. […] Using cell viability as a readout (CellTiter-Glo assay) we found both overlapping and distinct drugs that can be repurposed for the treatment of VP-MCC and VN-MCC. […]
Results filed as inconclusive are left out. The source made the active and inactive calls. Calls come from the whole dose curve; as a rule, active = well fitted inhibition curve with a large enough effect; inconclusive = small, poorly fitted or top-dose-only effect; inactive = flat fitted curve, though single readings scatter. Where a SMILES comes first, the peptide text is derived from it.
measured.property: outcome

>  <compound>
CC(C)=CCc1ccc(Oc2c(O)cc(C)cc2CO)c(C(=O)O)c1O

>  <tgt>
NIH3T3

>  <outcome>
inactive

$$$$
>  <compound>
CCOC(=O)[C@H](CCc1ccccc1)N[C@@H](C)C(=O)N1C2CCCCC2C[C@H]1C(=O)O (some centres undefined)

>  <tgt>
NIH3T3

>  <outcome>
inactive

$$$$
>  <compound>
COc1cc(/C=C/C(=O)OC(C)(C)C(OC2OC(CO)C(O)C(O)C2O)C(=O)OCc2ccc(OC3OC(CO)C(O)C(O)C3O)cc2)ccc1O (centres undefined)

>  <tgt>
NIH3T3

>  <outcome>
inactive [at 17.4 µM]

$$$$
>  <compound>
CC1NC(=O)CNC(=O)C(C(C)C)NC(=O)C2CCCN2C(=O)C(C(C)C)NC(=O)C(Cc2c[nH]c3ccccc23)NC1=O (centres undefined) (cyclo(GAWVPV); configuration not given here)

>  <tgt>
NIH3T3

>  <outcome>
inactive [at 17.4 µM]

$$$$
>  <compound>
CC1(C)C(=O)C(C)(C)c2cc(C(=O)Nc3ccc(C(=O)O)cc3)ccc21

>  <tgt>
NIH3T3

>  <outcome>
inactive

$$$$
>  <compound>
CC1C/C=C/C=C\CCCCC(O)C/C=C/C(=O)O1 (centres undefined)

>  <tgt>
NIH3T3

>  <outcome>
inactive

$$$$
>  <compound>
O=C(O)c1ccc(CCCc2ccc(OCCc3ccc(F)cc3)cc2)o1

>  <tgt>
NIH3T3

>  <outcome>
inactive

$$$$
>  <compound>
CC(C)(O)c1ccc2c(c1)C(O)CC1C(C)(C(=O)O)CCCC21C (centres undefined)

>  <tgt>
NIH3T3

>  <outcome>
inactive

$$$$

# value lookup — system NIH3T3, readout outcome, item COc1cc2c(cc1OC)CN(C(=O)[C@@H](NCc1ccncc1)C(C)(C)C)CC2 inactive
